- protocol: Host cell number in the same well of the amastigote image-based assay
- Design: species or system mouse
- particulars: mouse, 3T3 host cells infected with T. cruzi

[
  {
    "compound": "CC1CS(=O)(=O)CCN1/N=C/c1ccc([N+](=O)[O-])o1 (stereo not shown)",
    "cytotoxicity at 48 h, 153.1 µM (%)": 32
  }
]

* * *

- protocol: Host cell number in the same well of the amastigote image-based assay
- Set-up: species or system mouse
- particulars: mouse, 3T3 host cells infected with T. cruzi

[
  {
    "molecule": "CC[C@@]1(O)C(=O)OCc2c1cc1n(c2=O)Cc2cc3ccccc3nc2-1 [Camptothecin, camptothecin]",
    "cytotoxicity at 48 h, 16.8 µM, %": 44
  }
]
